ASSAYED_SYSTEM: JAK2 (Homo sapiens)
Construct: host or cells: baculovirus expression system
PROCEDURE_TEXT: Recombinant Human JAK2 Kinase Assay (TRF)
Assay type: biochemical
APPLIED_CONDITIONS: JAK2 Kinase Inhibition; read-out: JAK2 Potency
pIC50: −log10 of the molar value.
pIC50 reference

The cases that follow already have their pIC50 on record.
COc1cc(N2CCN(C3CCOCC3)CC2)ccc1Nc1ncc2ccc(-c3ccccc3N(C)S(C)(=O)=O)n2n1    6.00 to 7.00
COc1cc2c(cc1Nc1ncc3ccc(-c4ccccc4N(C)S(C)(=O)=O)n3n1)CCC1(CCN(C[C@H](C)O)CC1)O2    5.00 to 6.00
CN1CCN(c2ccc(Nc3ncc4ccc(C5CCCCC5)n4n3)cc2)CC1    > 7.00
C[S+]([O-])c1ccccc1-c1ccc2cnc(Nc3ccc(N4CCOCC4)cc3)nn12 (stereo not shown)    > 7.00

Please list pIC50 recorded for the compound COc1ccccc1-c1ccc2cnc(Nc3ccc4nc(CN5CCOCC5)[nH]c4c3)nn12
> 7.00

For COc1cc(N2CCC(N3CCC(F)(F)CC3)CC2)ccc1Nc1ncc2ccc(-c3ccccc3N(C)S(C)(=O)=O)n2n1 , write its pIC50.
6.00 to 7.00

In one line, give reported pIC50 of the entry CN1CCN(c2ccc(Nc3ncc4ccc(-c5cccc(S(C)(=O)=O)c5)n4n3)cc2)CC1 .
> 7.00

###

Reported pIC50 values for the following compounds.
ASSAYED_SYSTEM: JAK2 (Homo sapiens, UniProt O60674)
Construct: host or cells: baculovirus expression system
Sequence (O60674 whole entry): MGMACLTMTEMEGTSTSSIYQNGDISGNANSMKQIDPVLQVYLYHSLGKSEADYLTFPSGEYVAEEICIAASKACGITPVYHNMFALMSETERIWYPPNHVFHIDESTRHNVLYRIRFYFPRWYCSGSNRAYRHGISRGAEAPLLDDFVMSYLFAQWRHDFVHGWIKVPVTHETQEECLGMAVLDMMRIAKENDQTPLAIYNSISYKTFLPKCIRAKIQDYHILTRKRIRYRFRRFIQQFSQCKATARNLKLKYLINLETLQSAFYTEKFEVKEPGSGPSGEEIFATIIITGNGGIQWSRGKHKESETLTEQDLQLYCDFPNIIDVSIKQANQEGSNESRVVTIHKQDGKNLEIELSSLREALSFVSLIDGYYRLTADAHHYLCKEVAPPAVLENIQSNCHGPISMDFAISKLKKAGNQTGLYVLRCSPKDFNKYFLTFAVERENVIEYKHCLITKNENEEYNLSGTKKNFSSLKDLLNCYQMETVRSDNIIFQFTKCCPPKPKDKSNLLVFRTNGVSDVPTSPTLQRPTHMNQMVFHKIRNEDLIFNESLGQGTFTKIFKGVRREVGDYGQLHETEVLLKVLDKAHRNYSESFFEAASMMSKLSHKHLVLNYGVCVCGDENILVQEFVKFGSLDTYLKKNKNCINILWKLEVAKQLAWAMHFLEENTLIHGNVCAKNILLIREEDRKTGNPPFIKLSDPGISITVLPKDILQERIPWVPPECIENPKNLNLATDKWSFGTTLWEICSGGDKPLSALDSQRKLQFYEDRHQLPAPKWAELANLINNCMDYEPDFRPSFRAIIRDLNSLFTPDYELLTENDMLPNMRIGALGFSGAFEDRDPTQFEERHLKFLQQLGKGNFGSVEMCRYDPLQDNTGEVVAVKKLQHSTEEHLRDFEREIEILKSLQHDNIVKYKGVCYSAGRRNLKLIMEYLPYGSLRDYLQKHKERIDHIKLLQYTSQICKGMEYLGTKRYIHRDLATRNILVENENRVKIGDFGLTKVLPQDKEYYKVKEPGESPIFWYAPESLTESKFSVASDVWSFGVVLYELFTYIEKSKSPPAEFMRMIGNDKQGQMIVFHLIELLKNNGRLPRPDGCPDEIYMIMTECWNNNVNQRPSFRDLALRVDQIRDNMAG
PROCEDURE_TEXT: Recombinant Human JAK2 Kinase Assay (TRF)
Type: biochemical
APPLIED_CONDITIONS: JAK2 Kinase Inhibition; read-out: JAK2 Potency
pIC50: −log10 of the molar value.

Here's what some known entries look like.
CC(C)(C)NS(=O)(=O)c1ccccc1-c1ccc2cnc(Nc3ccc(N4CCOCC4)cc3)nn12    6.00 to 7.00
COc1ccc(Cl)cc1-c1ccc2cnc(Nc3cccc(N4CCC(N5CCOCC5)CC4)c3)nn12    > 7.00
O=C(O)c1ccc(-c2ccc3cnc(Nc4ccc(N5CCOCC5)cc4)nn23)cc1    > 7.00
O=S(=O)(c1ccc(-c2ccc3cnc(Nc4ccc(N5CCOCC5)cc4)nn23)cc1)N1CCCC1    > 7.00
CS(=O)(=O)c1cccc(-c2ccc3cnc(Nc4ccc5[nH]c(CN6CCN(CCO)CC6)nc5c4)nn23)c1    > 7.00
CCOc1ccccc1-c1ccc2cnc(Nc3ccc(N4CCN(C)CC4)cc3)nn12    > 7.00
Clc1cccc(-c2ccc3cnc(-n4cnc5cnccc54)nn23)c1    5.00 to 6.00
COc1ccccc1-c1ccc2cnc(-c3nnn[nH]3)nn12    < 5.00

As a next step, examine the compound that follows.
Give the reported pIC50 for this compound. CN(C)c1cccc(Nc2ncc3ccc(-c4cccc(Cl)c4)n3n2)c1
5.00 to 6.00

###

ASSAYED_SYSTEM: JAK2 (Homo sapiens, UniProt O60674)
Construct: host or cells: baculovirus expression system
PROCEDURE_TEXT: Recombinant Human JAK2 Kinase Assay (TRF)
Type: biochemical
APPLIED_CONDITIONS: JAK2 kinase inhibition, 0.2 μM ATP; read-out: JAK2 Potency
RESULT_TYPE: IC50

Some entries whose results are on file:
Cc1nc(-c2ccc3cnc(Nc4ccc(N5CCOCC5)cc4)nn23)cn1C [Example 1044]    < 100 nM
COc1cc(C2CCN(CCF)CC2)ccc1Nc1ncc2ccc(-c3ccccc3N(C)S(C)(=O)=O)n2n1 [Example 792]    100 to 1000 nM

Specify IC50 for CN(c1ccccc1-c1ccc2cnc(Nc3ccc(N4CCC(O)CC4)cc3)nn12)S(C)(=O)=O [Example 635] and stop.
< 100 nM

Supply recorded IC50 for COc1cc2c(cc1Nc1ncc3ccc(-c4ccccc4N(C)S(C)(=O)=O)n3n1)CCCC(N1CCOCC1)C2 (stereo not shown) [Example 993] here.
100 to 1000 nM
